target: HLA-DR1 (human); assay: fluorescence polarization competition; displaces 25 nM fluorescently-labeled polypeptide from 500 nM HLA-DR1
Readout Label: IC50 (µM)
One number for each entry, in µM.

For each entry beneath this line, provide reported IC50.
1. FKGEQAGAGE [FNS007 (APL2)]
2. RSFTLAASETGVG [APL16]
3. IWYINCFVCETHAML [APL12]
4. IWYITCFGCETHAML [APL10]

[3.37, 5.55, 5.2, 5.87]
